system: SK-MEL-2 melanoma; experiment: NCI tumour cell line growth inhibition, 48 h; in the data active = GI50 below about 0.43 µM; inactive = the rest
Labels: Y for active, N for inactive

- compound: "COC(=O)C(Br)(C(=O)OC)C(Br)C(Br)C(Br)c1ccccc1 (stereo not drawn)"
  category.label: "N"
- compound: "COc1ccc(/C=C\\c2cc(OC)c(OC)c(OC)c2)cc1N/C=C\\C(=O)c1c[nH]c2ccccc12"
  category.label: "Y"
- compound: "CCN1C(=O)N[C@H]2[C@@H]3NC(=O)c4ccc(Cl)n4[C@@H]3C[C@]21O"
  category.label: "Y"
- compound: "CS(=O)(=O)Nc1cccc(-c2ccc3ncnc(Nc4cncc(Cl)c4)c3c2)c1"
  category.label: "N"
- compound: "C=CC(=O)N1CCC(CNc2ncnc(N)c2-c2ccc(Oc3ccccc3)cc2)CC1"
  category.label: "N"
- compound: "CCSc1nc(N)c(C#N)c(-c2ccc(OC)c(OC)c2)c1C#N"
  category.label: "N"
- compound: "COc1cc(NC(=O)c2cc3ccccc3cc2O)c(OC)cc1Cl"
  category.label: "N"
- compound: "Cc1ccc(Nn2c(SCC(=O)Nc3nc(-c4ccccc4)cs3)nc(C)c2C)cc1"
  category.label: "N"
- compound: "COc1ccc(/C=N/C2=NNC(C)(c3ccccc3O)N2C(Cc2c[nH]c3ccccc23)C(=O)O)cc1 (stereo not drawn)"
  category.label: "N"
- compound: "COc1ccccc1CNC(=O)/C=C/c1ccc(O)c(O)c1"
  category.label: "N"
- compound: "C=CC(=O)OCCCS(=O)(=O)[O-].C=CC(=O)OCCCS(=O)(=O)[O-].NC1CCCCC1N.[Pt+4]"
  category.label: "N"
- compound: "O=C1Nc2cc(-c3ccc(O)cc3)ccc2/C1=C/c1ccc[nH]1"
  category.label: "N"
- compound: "COC(=O)[C@]12CC[C@@H](C)[C@H](C)[C@@H]1C1=CC[C@@H]3[C@@]4(C)C(C=O)=C[C@@](C)(COC(=O)c5ccco5)C4=CC[C@@]3(C)[C@]1(C)CC2"
  category.label: "Y"

----------
Recorded TGI for the following molecules
system: SNB-19 CNS; experiment: NCI tumour cell line growth inhibition, 48 h
Peptide text beside a SMILES is read from it. * marks the point of attachment. Cbz = O=C(OCc1ccccc1)*
readout.kind: TGI

- molecule: "c1ccc(C[N+]23C(CC[C@H]2c2ccccc2)CC[C@H]3c2ccccc2)cc1 (stereo partly drawn)"
  readout.kind: "TGI"
  reported.measurement: "> 100 µM"
- molecule: "O=C(c1nc2ccc(Cl)cc2[nH]c1=O)C(O)c1cccc([N+](=O)[O-])c1 (stereo not drawn)"
  readout.kind: "TGI"
  reported.measurement: "> 100 µM"
- molecule: "CC(C)(C)COS(=O)OCC(C)(C)C"
  readout.kind: "TGI"
  reported.measurement: "> 100 µM"
- molecule: "COc1ccc(-n2nc(C(=O)NCC(=O)Nc3nc4cc(OC)ccc4s3)c3ccccc3c2=O)cc1"
  readout.kind: "TGI"
  reported.measurement: "6.07 µM"
- molecule: "CCOC(=O)CCC(NC(=O)CNC(=O)CNC(=O)C(CCC(=O)OCC)NC(=O)C(CCC(=O)OCC)NC(=O)C(CCC(=O)OCC)NC(=O)OCc1ccccc1)C(=O)NC(CCC(=O)OCC)C(=O)NC(CCC(=O)OCC)C(=O)OCC (stereo not drawn) (Cbz-E(OEt)E(OEt)E(OEt)GGE(OEt)E(OEt)E(OEt)-OEt; configuration not given here)"
  readout.kind: "TGI"
  reported.measurement: "> 75 µM"
- molecule: "Cn1c(=O)c2[nH]c(CCS)nc2n(C)c1=O"
  readout.kind: "TGI"
  reported.measurement: "> 100 µM"
- molecule: "Oc1cc(F)cc2cccnc12"
  readout.kind: "TGI"
  reported.measurement: "> 100 µM"
- molecule: "COc1ccccc1N1CCN(CC(O)Cn2c(=O)c3c(OC)nc(C)cc3c(=O)n2-c2ccccc2)CC1 (stereo not drawn)"
  readout.kind: "TGI"
  reported.measurement: "> 100 µM"
